Sourced from patent US20210269542A1

Biological target: T1, human GITR-Fc (human, UniProt Q9Y5U5 26-162)
T1 construct: also called recombinant hGITR; wild type human GITR-Fc
T1 sequence: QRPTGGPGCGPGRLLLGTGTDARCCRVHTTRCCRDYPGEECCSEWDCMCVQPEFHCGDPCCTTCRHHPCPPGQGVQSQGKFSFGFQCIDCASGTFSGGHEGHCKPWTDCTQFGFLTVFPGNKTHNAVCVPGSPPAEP
Assay: BLI Octet RED384, ABP on AHQ sensor, 100 nM antigen, single concentration;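 also: association and dissociation each tracked over 180 s, with dissociation run in antigen-free buffer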
endpoint: pKd
Lab note — pKd values are minus log10 of concentrations in M.

What value of pKd has been recorded for this entry: ABP17 (antibody, human IgG1, kappa, N297A, V domains shown) VH: QVQLVQSGAEVKKPGSSVKVSCKASGGTFVRYAISWVRQAPGQGLEWMGGIIPIFGEAQYAQRFQGRVTITADESTSTAYMELSSLRSEDTAVYYCAREGYYYGALPYWGQGTLVTVSS VL: EIVLTQSPATLSLSPGERATLSCRASQSVSSYLAWYQQKPGQAPRLLIYDASNRATGIPARFSGSGSGTDFTLTISSLEPEDFAVYYCQQHSVFPPTFGGGTKVEIKR 8.38
